Tested on: COLO 205
Experiment: NCI tumour cell line growth inhibition, 48 h
Activity calls are given as the source filed them. Cut-off read from the data, not from the text of the source: active = GI50 up to about 1.1 µM and inactive = higher.
Please reply with one of these outcomes: 1 = active, 0 = inactive

Please share the test call associated with NC(=S)N/N=C1\c2ccccc2CCC1CCC1(O)CCc2ccccc2C1=O (centres undefined) .
0

// repeat for CC(=O)OC1(C#N)CC2OC1C1C2N1C(=O)c1ccccc1 (centres undefined) and report
0

Next entry: `Cc1ccccc1NC(=O)Cc1nc2ccccc2s1`
0

Here is the next compound: `C=CCn1c(=O)c(C)cn(COCCO)c1=O`
0

Now try COc1ccc(C2c3cc4c(cc3OC(O)(CO)C2C(=O)O)OCO4)c(OC)c1OC.COc1ccc(C2c3cc4c(cc3OC3(O)COC(=O)C23)OCO4)c(OC)c1OC (centres undefined) .
0

// same read-out, input: CC(=O)NC1C(OCc2ccccc2)OC(CO)C(O)C1OCC(=O)N[C@@H](C)C(=O)N[C@H](CCC(=O)NCCCNc1c2ccccc2nc2cccc([N+](=O)[O-])c12)C(N)=O (some centres undefined)
1

Note, next up: `c1cc2nnc1SCCSCCSc1ccc(nn1)SCCSCCS2`
0

Repeat with `COC1=CC(=O)C=C(OC)C1=O`
0

Then what about the compound `O=C1NC(S(=O)(=O)O)=NNC12c1ccccc1-c1ccccc12` ?
0
